The values you see were collected from patent US20240279318A1.

Please respond with reported log10 Affinity increase for every item in the list.
Molecular target: T1, AFP158/HLA-A*02:01 complex (human)
T1 construct: biotinylated on the BSP by BirA for ELISA and panning; also called biotinylated AFP158/HLA-A*02:01 complex; Bio-AFP158
Assay: SPR; vs AS170036 VL1VH1;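 note: crude scFv captured on sensor chip, peptide–HLA complex flowed over at several concentrations, KD estimated from association and dissociation kinetic rates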
On a log10 scale: recorded Affinity increase, unit fold.

Query: Could you share which log10 Affinity increase value was measured for AS170036 VL1VH1 HD102E (scFv) scFv: QSALTQPRSVSGSPGQSVTISCAGTSSDVGSENYVSWYQQHPGKAPKLMIYQVNKRASGVPDRFSGSKSGNTASLTISGLQAEDEADYYCASYRSSDHNIVFGGGTKLTVLGGGGSGGGGSGGGGSEVQLVESGGGLVQPGGSLRLSCAASGFTFSSYAMSWVRQAPGKGLEWVSTINSGTGSPYYADSVKGRFTISRDNSKNTLYLQMNSLRAEDTAVYYCAKNFFEGSWFLGPPAMDYWGQGTLVTVSSHHHHHH ?
Response: 0.08

Query: Could you share which log10 Affinity increase value was measured for AS170036 VL1VH1 HP110D (scFv) scFv: QSALTQPRSVSGSPGQSVTISCAGTSSDVGSENYVSWYQQHPGKAPKLMIYQVNKRASGVPDRFSGSKSGNTASLTISGLQAEDEADYYCASYRSSDHNIVFGGGTKLTVLGGGGSGGGGSGGGGSEVQLVESGGGLVQPGGSLRLSCAASGFTFSSYAMSWVRQAPGKGLEWVSTINSGTGSPYYADSVKGRFTISRDNSKNTLYLQMNSLRAEDTAVYYCAKNFFDGSWFLGPDAMDYWGQGTLVTVSSHHHHHH ?
Response: -0.30

Query: Could you share which log10 Affinity increase value was measured for AS170036 VL1VH1 HD102N (scFv) scFv: QSALTQPRSVSGSPGQSVTISCAGTSSDVGSENYVSWYQQHPGKAPKLMIYQVNKRASGVPDRFSGSKSGNTASLTISGLQAEDEADYYCASYRSSDHNIVFGGGTKLTVLGGGGSGGGGSGGGGSEVQLVESGGGLVQPGGSLRLSCAASGFTFSSYAMSWVRQAPGKGLEWVSTINSGTGSPYYADSVKGRFTISRDNSKNTLYLQMNSLRAEDTAVYYCAKNFFNGSWFLGPPAMDYWGQGTLVTVSSHHHHHH ?
Response: -1.00

Query: Could you share which log10 Affinity increase value was measured for AS170036 VL1VH1 HD102Q (scFv) scFv: QSALTQPRSVSGSPGQSVTISCAGTSSDVGSENYVSWYQQHPGKAPKLMIYQVNKRASGVPDRFSGSKSGNTASLTISGLQAEDEADYYCASYRSSDHNIVFGGGTKLTVLGGGGSGGGGSGGGGSEVQLVESGGGLVQPGGSLRLSCAASGFTFSSYAMSWVRQAPGKGLEWVSTINSGTGSPYYADSVKGRFTISRDNSKNTLYLQMNSLRAEDTAVYYCAKNFFQGSWFLGPPAMDYWGQGTLVTVSSHHHHHH ?
Response: -0.70

Query: Could you share which log10 Affinity increase value was measured for AS170036 VL1VH1 HG56W (scFv) scFv: QSALTQPRSVSGSPGQSVTISCAGTSSDVGSENYVSWYQQHPGKAPKLMIYQVNKRASGVPDRFSGSKSGNTASLTISGLQAEDEADYYCASYRSSDHNIVFGGGTKLTVLGGGGSGGGGSGGGGSEVQLVESGGGLVQPGGSLRLSCAASGFTFSSYAMSWVRQAPGKGLEWVSTINSGTWSPYYADSVKGRFTISRDNSKNTLYLQMNSLRAEDTAVYYCAKNFFDGSWFLGPPAMDYWGQGTLVTVSSHHHHHH ?
Response: 0.23
